molecular target: Acetylcholinesterase (Homo sapiens); assay: Acetylcholinesterase (AChE) small molecule antagonists: enzyme-based qHTS assay with human liver microsomes (AID 1347399); conditions: qHTS inhibition; series mostly up to 115 µM; also: nearly all actives have a fitted effect of over 60% in size
Active and inactive are the calls of the source. Calls follow the shape of the full dose curve.
Possible outcomes: class 1 for active, class 0 for inactive

- COMPOUND: "ClC1=C(Cl)[C@]2(Cl)[C@@H]3[C@H]4C[C@H]([C@@H]5O[C@H]45)[C@@H]3[C@@]1(Cl)C2(Cl)Cl"
  LABEL VALUE: "class 0"
- COMPOUND: "[O]=[Cr](=[O])([OH])[O][Cr](=[O])(=[O])[OH]"
  LABEL VALUE: "class 0"
- COMPOUND: "O=[N+]([O-])c1ccc(CCl)cc1"
  LABEL VALUE: "class 0"
- COMPOUND: "N#CCCl"
  LABEL VALUE: "class 0"
- COMPOUND: "Cc1c([N+](=O)[O-])cc2c(c1[N+](=O)[O-])C(C)(C)CC2(C)C"
  LABEL VALUE: "class 0"
- COMPOUND: "CC(C)NCC(O)c1ccccc1Cl (stereo not given)"
  LABEL VALUE: "class 0"
- COMPOUND: "Cc1c([N+](=O)[O-])c(C)c([N+](=O)[O-])c(C(C)(C)C)c1[N+](=O)[O-]"
  LABEL VALUE: "class 0"
- COMPOUND: "CCOC(=O)CCN(SN(C)C(=O)Oc1cccc2c1OC(C)(C)C2)C(C)C"
  LABEL VALUE: "class 1"
- COMPOUND: "CCNc1nc(NC(C)C(C)C)nc(SC)n1 (stereo not given)"
  LABEL VALUE: "class 0"
- COMPOUND: "CC(Cc1ccc2c(c1)OCO2)NO (stereo not given)"
  LABEL VALUE: "class 0"

====

test: A CellTox Green Cytotoxicity Assay to monitor cytotoxicity in HepG2 cells - 16 hour (AID 1224876); conditions: CellTox Green fluorescence; series mostly up to 76.8 µM; also: nearly all actives have a fitted effect of over 45% in size
Records with an inconclusive call do not appear. Activity calls are given as the source filed them. Calls come from the whole dose curve; as a rule, active = well fitted activation curve with a large enough effect in the repeat runs; inconclusive = weak or mixed curves; inactive = flat fitted curve, though single readings scatter.
Possible outcomes: active, inactive

- COMPOUND: "O=C(O)[C@H](O)[C@@H](O)C(=O)O"
  LABEL VALUE: "inactive"
- COMPOUND: "CCCCC(CC)COC(=O)c1ccccc1C(=O)OCC(CC)CCCC (stereo not drawn)"
  LABEL VALUE: "inactive"
- COMPOUND: "Oc1ccc(Cl)c(Cl)c1"
  LABEL VALUE: "inactive"
- COMPOUND: "NC1CCC(CC2CCC(N)CC2)CC1 (stereo not drawn)"
  LABEL VALUE: "inactive"
- COMPOUND: "CCCCCON=O"
  LABEL VALUE: "inactive"
- COMPOUND: "CCn1cc[n+](C)c1 (tested in a mixture with another compound)"
  LABEL VALUE: "inactive"
- COMPOUND: "BrCCCBr"
  LABEL VALUE: "inactive"
- COMPOUND: "CC1(C)[C@H](/C=C2\\CCSC2=O)[C@@H]1C(=O)OCc1coc(Cc2ccccc2)c1"
  LABEL VALUE: "inactive"
- COMPOUND: "CCN(CC)C(=S)S"
  LABEL VALUE: "inactive"
- COMPOUND: "CCc1cccc(C)c1N(C(=O)CCl)[C@@H](C)COC"
  LABEL VALUE: "active"
- COMPOUND: "Cc1nn(-c2cc(NS(C)(=O)=O)c(Cl)cc2Cl)c(=O)n1C(F)F"
  LABEL VALUE: "inactive"
- COMPOUND: "O=c1c2ccccc2c(=O)c2c1cc(Cl)c1[nH]c3c([nH]c12)c(Cl)cc1c(=O)c2ccccc2c(=O)c13"
  LABEL VALUE: "inactive"
- COMPOUND: "CCOP(=S)(OCC)SC(CCl)N1C(=O)c2ccccc2C1=O (stereo not drawn)"
  LABEL VALUE: "inactive"

====

experiment: qHTS assay to identify small molecule agonists of the TGF-beta/Smad signaling pathway - cell viability counter screen (AID 1346829); settings: SBE-bla HEK293T viability, CellTiter-Glo luminescence, 5 h; series mostly up to 76.8 µM; also: top concentration of the series differs between compounds; nearly all actives have a fitted effect of over 45% in size
Results filed as inconclusive are left out. The source made the active and inactive calls. The call rests on the fitted dose curve; in most records, active means well fitted cell-killing curve with a large enough effect in the repeat runs; inconclusive means weak or mixed curves, or effect the other way; inactive means flat fitted curve, though single readings scatter.

- COMPOUND: "CN1CCc2cc3c(cc2C1O)OCO3 (configuration not stated)"
  outcome: "inactive"
- COMPOUND: "CC(C)c1c(CN(C)C(C)Cc2ccccc2)n(C)n(-c2ccccc2)c1=O (configuration not stated)"
  outcome: "inactive"
- COMPOUND: "COc1ccc2[nH]cc(CCN(C(C)C)C(C)C)c2c1"
  outcome: "inactive"
- COMPOUND: "CC[N+]1(CC)CCC(OC(=O)C(O)(c2ccccc2)c2ccccc2)C1 (configuration not stated)"
  outcome: "inactive"
- COMPOUND: "COc1c2c(cc3c1OCO3)CCN(C)C2"
  outcome: "inactive"
- COMPOUND: "Oc1cc(Cl)c(Cl)c(Cl)c1Cl"
  outcome: "inactive"
- COMPOUND: "CC(Cl)CCl (configuration not stated)"
  outcome: "inactive"

====

test: qHTS assay to identify small molecule agonists of H2AX - cell viability counter screen (AID 1224847); conditions: CHO-K1 viability, CellTiter-Glo luminescence, 3 h; series mostly up to 154 µM; also: nearly all actives have a fitted effect of over 30% in size
Records with an inconclusive call do not appear. The source made the active and inactive calls. Calls follow the shape of the full dose curve.
Possible outcomes: active, inactive

- COMPOUND: "O=[N+]([O-])c1ccccc1-c1ccccc1"
  LABEL VALUE: "inactive"
- COMPOUND: "CC[C@H](C)[C@H]1O[C@]2(C=C[C@@H]1C)C[C@@H]1C[C@@H](C/C=C(\\C)[C@@H](O[C@H]3C[C@H](OC)[C@@H](O[C@H]4C[C@H](OC)[C@@H](NC)[C@H](C)O4)[C@H](C)O3)[C@@H](C)/C=C/C=C3\\CO[C@@H]4[C@H](O)C(C)=C[C@@H](C(=O)O1)[C@]34O)O2"
  LABEL VALUE: "active"
- COMPOUND: "CCOP(=S)(OCC)Oc1cc(C)nc(N(CC)CC)n1"
  LABEL VALUE: "inactive"
- COMPOUND: "CC1CCCC1"
  LABEL VALUE: "inactive"
- COMPOUND: "O=[N+]([O-])C(Br)Br"
  LABEL VALUE: "inactive"
- COMPOUND: "CSSC"
  LABEL VALUE: "inactive"
- COMPOUND: "COCCC#N"
  LABEL VALUE: "inactive"
- COMPOUND: "c1cc[n+]2c(c1)-c1cccc[n+]1CC2"
  LABEL VALUE: "inactive"
- COMPOUND: "Clc1ccc(C2(Cn3cncn3)OCCO2)c(Cl)c1"
  LABEL VALUE: "inactive"
- COMPOUND: "C=CC(=C)C"
  LABEL VALUE: "inactive"
- COMPOUND: "OCC(Br)CBr (stereo not drawn)"
  LABEL VALUE: "inactive"
- COMPOUND: "Cc1ccccc1OP(=O)(Oc1ccccc1C)Oc1ccccc1C"
  LABEL VALUE: "active"
- COMPOUND: "CNC(=O)/C=C(\\C)OP(=O)(OC)OC"
  LABEL VALUE: "inactive"

====

assay: A CellTox Green Cytotoxicity Assay to monitor cytotoxicity in HepG2 cells - 8 hour (AID 1224890); details: CellTox Green fluorescence; series mostly up to 76.8 µM; also: nearly all actives have a fitted effect of over 45% in size
Inconclusive results are not listed. Active and inactive are the calls of the source. Calls come from the whole dose curve; as a rule, active = well fitted activation curve with a large enough effect in the repeat runs; inconclusive = weak or mixed curves; inactive = flat fitted curve, though single readings scatter.
Possible outcomes: T (active), F (inactive)

- COMPOUND: "Nc1nc(N)c(N)c(N)n1"
  LABEL VALUE: "T"
- COMPOUND: "O=[N+]([O-])c1ccc(CCl)cc1"
  LABEL VALUE: "F"
- COMPOUND: "O=C1C(Cl)=C(Cl)C(=O)C(Cl)=C1Cl"
  LABEL VALUE: "T"
- COMPOUND: "CCN1CCC2(CC1)COc1cc3c(cc12)N(C(=O)c1ccc(-c2ccc(-c4nnc(C)o4)cc2C)cc1)CC3"
  LABEL VALUE: "T"
- COMPOUND: "CCC[CH2][Sn]([CH2]CCC)([CH2]CCC)[CH2]CCC"
  LABEL VALUE: "T"
- COMPOUND: "CCCCC(CC)COC(=O)c1ccccc1C(=O)OCC(CC)CCCC (stereo not drawn)"
  LABEL VALUE: "F"
- COMPOUND: "CC(Cc1ccc(O)cc1)NCC(O)c1cc(O)cc(O)c1 (stereo not drawn)"
  LABEL VALUE: "F"
- COMPOUND: "CCCCCON=O"
  LABEL VALUE: "F"
- COMPOUND: "CCOC(=O)CCN(SN(C)C(=O)Oc1cccc2c1OC(C)(C)C2)C(C)C"
  LABEL VALUE: "F"
- COMPOUND: "O=C(NC(=O)c1ccccc1Cl)Nc1ccc(OC(F)(F)F)cc1"
  LABEL VALUE: "F"
- COMPOUND: "COc1ccc2c(c1OC)C(=O)O[C@@H]2[C@H]1c2cc3c(cc2CCN1C)OCO3"
  LABEL VALUE: "F"
- COMPOUND: "CSSC"
  LABEL VALUE: "F"
- COMPOUND: "c1csc(-c2ccc(-c3cccs3)s2)c1"
  LABEL VALUE: "F"
